# study target: alkaline phosphatase (Bos taurus, UniProt P19111)
# Sequence (P19111 20-506 limits assumed): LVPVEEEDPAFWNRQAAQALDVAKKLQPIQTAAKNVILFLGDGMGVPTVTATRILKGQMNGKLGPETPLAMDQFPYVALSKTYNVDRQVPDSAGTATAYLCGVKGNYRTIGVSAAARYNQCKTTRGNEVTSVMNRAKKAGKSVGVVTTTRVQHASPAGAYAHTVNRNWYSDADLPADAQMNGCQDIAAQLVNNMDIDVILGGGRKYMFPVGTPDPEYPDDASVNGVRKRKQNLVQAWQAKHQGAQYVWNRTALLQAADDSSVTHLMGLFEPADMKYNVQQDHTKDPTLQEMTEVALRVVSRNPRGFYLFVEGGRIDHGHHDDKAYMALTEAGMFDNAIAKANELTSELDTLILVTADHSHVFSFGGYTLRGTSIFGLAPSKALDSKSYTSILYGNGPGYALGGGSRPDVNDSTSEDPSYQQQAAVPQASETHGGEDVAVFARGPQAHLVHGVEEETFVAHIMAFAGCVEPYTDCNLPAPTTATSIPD
# assay comment: Chemiluminescent signal-to-noise levels with enhancers (Example XXIV)
# Format: biochemical
# settings: EMERALD 2 1 mg/ml; 20 min
property name: chemiluminescent signal-to-noise level

compound | study target | obs value
COC1(c2cccc(OP(=O)(O)O)c2)OOC12C1CC3CC2CC(Cl)(C3)C1 (stereo not shown) | alkaline phosphatase (Bos taurus, UniProt P19111) | 1280
COC1(c2cccc(OP(=O)(O)O)c2)OOC12C1CC3CC2CC(O)(C3)C1 (single isomer, unassigned) | alkaline phosphatase (Bos taurus, UniProt P19111) | 299
COC1(c2cccc(OP(=O)(O)O)c2)OOC12C1CC3CC(C1)CC2C3 (stereo not shown) [AMPPD, reference compound] | alkaline phosphatase (Bos taurus, UniProt P19111) | 291
COC1(c2cccc(OP(=O)(O)O)c2)OOC12C1CC3CC2CC(Br)(C3)C1 (stereo not shown) | alkaline phosphatase (Bos taurus, UniProt P19111) | 503
